pIC50 overview
target.or.test.system: recombinant human Mcl-1 (residues 171-327) / Bim interaction (Homo sapiens (Human), UniProt Q07820)
Sequence (Q07820 171-327): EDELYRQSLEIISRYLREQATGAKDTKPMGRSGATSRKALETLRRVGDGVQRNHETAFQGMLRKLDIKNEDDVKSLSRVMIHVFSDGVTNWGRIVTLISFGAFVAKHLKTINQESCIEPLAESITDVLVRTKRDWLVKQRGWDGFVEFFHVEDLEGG
protocol: biochemical
Assay type: binding
experimental.setup: 0.1 nM Mcl-1(171-327), 0.05 nM biotin-Bim (51-76); read-out: Mcl-1 HTRF IC50
Scale for pIC50: -log10 of concentration given in mol/L; no unit attached.

Example results:
CO[C@]1(CN2CCN(C(C)C)[C@@H](C)C2)/C=C/C[C@H](C)[C@@H](C)S(=O)(=O)NC(=O)c2ccc3c(c2)N(C[C@@H]2CC[C@H]21)C[C@@]1(CCCc2cc(Cl)ccc21)CO3 ... 10.05
COCC[C@@H]1[C@@H](C)C/C=C/[C@@](CN2CCN(C3(C)COC3)CC2)(OC)[C@@H]2CC[C@H]2CN2C[C@@]3(CCCc4cc(Cl)ccc43)COc3ccc(cc32)C(=O)NS1(=O)=O ... 10.11

For reference, reported pIC50 for `CO[C@@]1(CN2CCc3ncsc3C2)/C=C/C[C@H](C)[C@@H](C)S(=O)(=O)NC(=O)c2ccc3c(c2)N(C[C@@H]2CC[C@H]21)C[C@@]1(CCCc2cc(Cl)ccc21)CO3` stands at 9.26

Kindly note the recorded pIC50 for `CO[C@]1(CN2CCCN(C(C)C)CC2)/C=C/C[C@H](C)[C@@H](C)S(=O)(=O)NC(=O)c2ccc3c(c2)N(C[C@@H]2CC[C@H]21)C[C@@]1(CCCc2cc(Cl)ccc21)CO3` , which is 9.67

// field: pIC50; key: `COCC[C@@H]1[C@@H](C)C/C=C/[C@](CN2CCN(C(COC)COC)CC2)(OC)[C@@H]2CC[C@H]2CN2C[C@@]3(CCCc4cc(Cl)ccc43)COc3ccc(nc32)C(=O)NS1(=O)=O` ; value = 9.95

Documented pIC50 of C[C@@H]1[C@@H](C)C/C=C/[C@@](O)(CN2CCN3CCCC[C@@H]3C2)[C@@H]2CC[C@H]2CN2C[C@@]3(CCCc4cc(Cl)ccc43)COc3ccc(cc32)C(=O)NS1(=O)=O (racemic) : 10.01

Measured pIC50, `CO[C@]1(CN2CCN3CCOC[C@@H]3C2)/C=C/C[C@H](C)[C@@H](CCO)S(=O)(=O)NC(=O)c2ccc3c(c2)N(C[C@@H]2CC[C@H]21)C[C@@]1(CCCc2cc(Cl)ccc21)CO3` : 10.17

* * *

IC50: recorded values
target.or.test.system: recombinant human Mcl-1 (residues 171-327) / Bim interaction (Homo sapiens (Human))
protocol: biochemical
Type: binding
experimental.setup: 0.1 nM Mcl-1(171-327), 0.05 nM biotin-Bim (51-76); read-out: Mcl-1 HTRF IC50
API: value field is a number in nM; no unit string.

CO[C@]1(CN2CCN3CCOC[C@@H]3C2)/C=C/[C@H](C)[C@H](C)CS(=O)(=O)NC(=O)c2ccc3c(c2)N(C[C@@H]2CC[C@H]21)C[C@@]1(CCCc2cc(Cl)ccc21)CO3 ... 0.126

For the next question, use this molecule.
Entry under test: CO[C@]1(CN2CCN3CC[C@H](F)C[C@@H]3C2)/C=C/C[C@H](C)[C@@H](C)S(=O)(=O)NC(=O)c2ccc3c(c2)N(C[C@@H]2CC[C@H]21)C[C@@]1(CCCc2cc(Cl)ccc21)CO3 (single isomer, unassigned) [Example 326] . Its IC50 was 0.307

* * *

target.or.test.system: recombinant human Mcl-1 (residues 171-327) / Bim interaction (Homo sapiens (Human), UniProt Q07820)
protocol: biochemical
Assay type: binding
experimental.setup: TR-FRET, Mcl-1(171-327) / biotin-Bim (51-76); read-out: Mcl-1 HTRF IC50
endpoint: pIC50
Expect pIC50 as a plain number equal to -log10 of the molar concentration.

CC(C)C[C@]1(O)/C=C/C[C@H](C)[C@@H](C)S(=O)(=O)NC(=O)c2ccc3c(c2)N(C[C@@H]2CC[C@H]21)C[C@@]1(CCCc2cc(Cl)ccc21)CO3 [Example 100224] ... 9.46

The reported pIC50 of the compound CC#C[C@]1(O)CCCCCS(=O)(=O)NC(=O)c2ccc3c(c2)N(C[C@@H]2CC[C@H]21)C[C@@]1(CCCc2cc(Cl)ccc21)CO3 [Example 100025] was 8.63

So, C[C@H](C(=O)N(C)C)[C@]1(O)/C=C/C[C@H](C)[C@@H](C)S(=O)(=O)NC(=O)c2ccc3c(c2)N(C[C@@H]2CC[C@H]21)C[C@@]1(CCCc2cc(Cl)ccc21)CO3 [Example 100125] ? Its pIC50 was 9.37

Reported pIC50 of C[C@@H]1[C@@H](C)CCC[C@](C)(O)[C@@H]2CC[C@H]2CN2C[C@@]3(CCCc4cc(Cl)ccc43)COc3ccc(cc32)C(=O)NS1(=O)=O [Example 100049] : 8.90

COCCN(C)C(=O)C[C@]1(O)/C=C/C[C@H](C)[C@@H](C)S(=O)(=O)NC(=O)c2ccc3c(c2)N(C[C@@H]2CC[C@H]21)C[C@@]1(CCCc2cc(Cl)ccc21)CO3 [Example 100277] yielded pIC50 of 9.58

* * *

target.or.test.system: recombinant human Mcl-1 (residues 171-327) / Bim interaction (Homo sapiens (Human))
protocol: biochemical
Type: binding
experimental.setup: TR-FRET, Mcl-1(171-327) / biotin-Bim (51-76); read-out: Mcl-1 HTRF IC50
Form field: pIC50 (one value per entry).
Note on units: pIC50 is unitless, being -log10 of a concentration expressed in mol/L.

Lab book: pIC50 of C[C@@H]1[C@@H](C)CCC[C@@](O)(CC(=O)N2CCCCC2)[C@@H]2CC[C@H]2CN2C[C@@]3(CCCc4cc(Cl)ccc43)COc3ccc(cc32)C(=O)NS1(=O)=O [Example 100089] noted as 9.46

The reported value for CO[C@@]1(Cc2nccs2)/C=C/C[C@H](C)[C@@H](C)S(=O)(=O)NC(=O)c2ccc3c(c2)N(C[C@@H]2CC[C@H]21)C[C@@]1(CCCc2cc(Cl)ccc21)CO3 [Example 100525] in terms of pIC50 is 8.48

Memo: C[C@@H]1[C@@H](C)CCC[C@]2(CCO2)[C@@H]2CC[C@H]2CN2C[C@@]3(CCCc4cc(Cl)ccc43)COc3ccc(cc32)C(=O)NS1(=O)=O (single isomer, unassigned) [Example 100229] , reported pIC50: 9.45

// recorded pIC50 for C[C@@H]1[C@@H](C)C/C=C/[C@@](O)(CC(=O)N(C)CCN(C)C)[C@@H]2CC[C@H]2CN2C[C@@]3(CCCc4cc(Cl)ccc43)COc3ccc(cc32)C(=O)NS1(=O)=O [Example 100281] : 9.93

// C[C@@H]1[C@@H](C)C/C=C/[C@@](O)(C(F)F)[C@@H]2CC[C@H]2CN2C[C@@]3(CCCc4cc(Cl)ccc43)COc3ccc(cc32)C(=O)NS1(=O)=O [Example 100069] : pIC50 value = 9.34

* * *

target.or.test.system: recombinant human Mcl-1 (residues 171-327) / Bim interaction (Homo sapiens (Human), UniProt Q07820)
protocol: biochemical
Type: binding
experimental.setup: read-out: Mcl-1 HTRF IC50
endpoint: IC50 (nM)
Your answer is read as nM, so omit the unit and give the number.

CO[C@@]1(C)/C=C/C[C@H](C)[C@@H](C)S(=O)(=O)NC(=O)c2ccc3c(c2)N(C[C@@H]2CC[C@H]21)C[C@@]1(CCCc2cc(Cl)ccc21)CO3 [Example 100014] ... 0.228
C=C(C)[C@@H](O)C[C@]1(OC)/C=C/C[C@H](C)[C@@H](C)S(=O)(=O)NC(=O)c2ccc3c(c2)N(C[C@@H]2CC[C@H]21)C[C@@]1(CCCc2cc(Cl)ccc21)CO3 [Example 100470] ... 0.576
CC#C[C@@]1(O)/C=C/C[C@H](C)[C@@H](C)S(=O)(=O)NC(=O)c2ccc3c(c2)N(C[C@@H]2CC[C@H]21)C[C@@]1(CCCc2cc(Cl)ccc21)CO3 [Example 100498] ... 0.885
C[C@@H]1[C@@H](C)CCC[C@](C=O)(CN2CCOCC2)[C@@H]2CC[C@H]2CN2C[C@@]3(CCCc4cc(Cl)ccc43)COc3ccc(cc32)C(=O)NS1(=O)=O [Example 100337] ... 1.61
C[C@@H]1[C@@H](C)CCC[C@](O)(c2ncccn2)[C@@H]2CC[C@H]2CN2C[C@@]3(CCCc4cc(Cl)ccc43)COc3ccc(cc32)C(=O)NS1(=O)=O (stereo in doubt) [Example 100270] ... 0.776
C[C@H]1CCCC[C@](C)(O)[C@@H]2CC[C@H]2CN2C[C@@]3(CCCc4cc(Cl)ccc43)COc3ccc(cc32)C(=O)NS1(=O)=O [Example 100031] ... 7.45
C[C@@H]1[C@@H](C)C/C=C/[C@@](C)(O)[C@@H]2CC[C@H]2CN2C[C@@]3(CCCc4cc(Cl)ccc43)COc3ccc(cc32)C(=O)NS1(=O)=O [Example 100182] ... 0.863
CCN(CC)C(=O)C[C@]1(O)CCC[C@H](C)[C@@H](C)S(=O)(=O)NC(=O)c2ccc3c(c2)N(C[C@@H]2CC[C@H]21)C[C@@]1(CCCc2cc(Cl)ccc21)CO3 [Example 100112] ... 1.29

Record CC#C[C@]1(O)/C=C/C[C@H](C)[C@@H](C)S(=O)(=O)NC(=O)c2ccc3c(c2)N(C[C@@H]2CC[C@H]21)C[C@@]1(CCCc2cc(Cl)ccc21)CO3 [Example 100499] . Reported IC50: 0.509

Briefly, IC50 measured for C[C@@H]1[C@@H](C)CCC[C@](O)(c2ncccn2)[C@@H]2CC[C@H]2CN2C[C@@]3(CCCc4cc(Cl)ccc43)COc3ccc(cc32)C(=O)NS1(=O)=O [Example 100279] : 0.777
